# targetDesc: DYNLL1 (dynein light chain type 1) (Homo sapiens, UniProt P63167)
# Sequence (P63167 whole entry): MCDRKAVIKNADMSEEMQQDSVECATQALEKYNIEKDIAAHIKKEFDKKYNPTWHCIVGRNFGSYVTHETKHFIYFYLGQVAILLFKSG
propertyName: pKd
Just the number, please; pKd means minus log10 of the concentration in mol/L.

Query for DYNLL1 (dynein light chain type 1) (Homo sapiens, UniProt P63167): what pKd does the record show for C=C(C)[C@@H](CC[C@]1(C)O[C@@H]([C@](C)(O)[C@@H]2CC[C@H]3O[C@@H]([C@]4(C)CC[C@@H](Br)C(C)(C)O4)CC[C@]3(C)O2)C[C@H]1O)OC ?
6.08
